- STUDY_TARGET: SIRT1 (Homo sapiens, UniProt Q96EB6)
- ASSAY_SUMMARY: Mass spectrometry based assay to identify modulators of SIRT1 activity (deacetylation of p53-based acetylated peptide)
- Format: biochemical
- CONDITION_NOTES: 10 nM SIRT1, 0.5 μM peptide substrate, 120 μM βNAD+, 25 minutes at 25° C.
MEASURED_PROPERTY: % Fold Act. (percent maximum fold activation)

molecule="Cn1c(-c2cccc(C(F)(F)F)c2)nc2c(C(=O)Nc3ccnc(N4CCCC4)c3)cccc2c1=O [Compound 349]" experimental_result="A (Fold activation>200%)"
molecule="Cn1c(-c2cscn2)nc2c(C(=O)Nc3ccccn3)cccc2c1=O [Compound 225]" experimental_result="B (Fold Activation<200%)"
molecule="O=C(Nc1nccs1)c1cccc2c(=O)cc(-c3cccc(C(F)(F)F)c3)[nH]c12 [Compound 404]" experimental_result="A (Fold activation>200%)"
molecule="Cn1c(-c2ccncn2)nc2c(C(=O)Nc3ccccn3)cccc2c1=O [Compound 257]" experimental_result="B (Fold Activation<200%)"
molecule="Cn1c(-c2ccccc2OC(F)F)nc2c(NC(=O)c3cnccn3)cccc2c1=O [Compound 312]" experimental_result="A (Fold activation>200%)"

Quick one: give measured % Fold Act. (percent maximum fold activation) for O=C(Nc1cccc2c(=O)[nH]c(-c3ccccc3C(F)F)nc12)c1cnccn1 [Compound 329]
A (Fold activation>200%)

Tell me % Fold Act. (percent maximum fold activation) reported for Cn1c(-c2ncccn2)nc2c(NC(=O)c3cnccn3)cccc2c1=O [Compound 282]
B (Fold Activation<200%)

State, in one line, measured % Fold Act. (percent maximum fold activation) of Cn1c(-c2ccc(Cl)cc2)nc2c(C(=O)Nc3ccccn3)cccc2c1=O [Compound 244]
B (Fold Activation<200%)

* * *

- STUDY_TARGET: SIRT1 (Homo sapiens, UniProt Q96EB6)
- ASSAY_SUMMARY: Mass spectrometry based assay to identify modulators of SIRT1 activity (deacetylation of p53-based acetylated peptide)
- Assay type: biochemical
- CONDITION_NOTES: SIRT1 activation; 10 nM SIRT1, 0.5 μM peptide substrate, 120 μM βNAD+, 25 minutes at 25° C.
- Source text: A mass spectrometry based assay was used to identify modulators of SIRT1 activity. The mass spectrometry based assay utilizes a peptide having 20 amino acid residues as follows: Ac-EE-K(biotin)-GQSTSSHSK(Ac)NleSTEG-K(5TMR)-EE-NH2 (SEQ ID NO: 1) wherein K(Ac) is an acetylated lysine residue and Nle is a norleucine. The peptide is labeled with the fluorophore 5TMR (excitation 540 nm/emission 580 nm) at the C-terminus. The sequence of the peptide substrate is based on p53 with several modifications. […]
MEASURED_PROPERTY: EC1.5 μM

structure=Cn1cnc(-c2nc3c(C(=O)Nc4ccccn4)cccc3c(=O)n2C)c1 measured_property="EC1.5 μM" experimental_result="C (EC1.5>25 μM)"
structure=O=C(Nc1cccc2c(=O)cc(-c3ccccc3C(F)(F)F)[nH]c12)c1cnccn1 measured_property="EC1.5 μM" experimental_result="A (EC1.5<1.0 μM)"
structure=Cn1c(-c2cccc(C(F)(F)F)c2)nc2c(NC(=O)c3ccncn3)cccc2c1=O measured_property="EC1.5 μM" experimental_result="A (EC1.5<1.0 μM)"
structure=Cn1c(-c2cccc(C(F)(F)F)c2)nc2c(NC(=O)c3cncs3)cccc2c1=O measured_property="EC1.5 μM" experimental_result="B (EC1.5 1-25 μM)"
structure=Cn1c(-c2cccc(C(F)(F)F)c2)nc2c(C(=O)Nc3cccc(OC[C@H](O)CO)c3)cccc2c1=O measured_property="EC1.5 μM" experimental_result="A (EC1.5<1.0 μM)"
structure=Cn1c(-c2cccc(C(F)(F)F)c2)nc2c(C(=O)Nc3cccc(CN4CCCC4)n3)cccc2c1=O measured_property="EC1.5 μM" experimental_result="A (EC1.5<1.0 μM)"

Turning now to a further record.
Supply recorded EC1.5 μM for "Cn1c(-c2cccc(C(F)F)c2)nc2c(NC(=O)c3cnccn3)cccc2c1=O" here.
A (EC1.5<1.0 μM)

* * *

- STUDY_TARGET: SIRT1 (Homo sapiens, UniProt Q96EB6)
- Sequence (Q96EB6 1-747): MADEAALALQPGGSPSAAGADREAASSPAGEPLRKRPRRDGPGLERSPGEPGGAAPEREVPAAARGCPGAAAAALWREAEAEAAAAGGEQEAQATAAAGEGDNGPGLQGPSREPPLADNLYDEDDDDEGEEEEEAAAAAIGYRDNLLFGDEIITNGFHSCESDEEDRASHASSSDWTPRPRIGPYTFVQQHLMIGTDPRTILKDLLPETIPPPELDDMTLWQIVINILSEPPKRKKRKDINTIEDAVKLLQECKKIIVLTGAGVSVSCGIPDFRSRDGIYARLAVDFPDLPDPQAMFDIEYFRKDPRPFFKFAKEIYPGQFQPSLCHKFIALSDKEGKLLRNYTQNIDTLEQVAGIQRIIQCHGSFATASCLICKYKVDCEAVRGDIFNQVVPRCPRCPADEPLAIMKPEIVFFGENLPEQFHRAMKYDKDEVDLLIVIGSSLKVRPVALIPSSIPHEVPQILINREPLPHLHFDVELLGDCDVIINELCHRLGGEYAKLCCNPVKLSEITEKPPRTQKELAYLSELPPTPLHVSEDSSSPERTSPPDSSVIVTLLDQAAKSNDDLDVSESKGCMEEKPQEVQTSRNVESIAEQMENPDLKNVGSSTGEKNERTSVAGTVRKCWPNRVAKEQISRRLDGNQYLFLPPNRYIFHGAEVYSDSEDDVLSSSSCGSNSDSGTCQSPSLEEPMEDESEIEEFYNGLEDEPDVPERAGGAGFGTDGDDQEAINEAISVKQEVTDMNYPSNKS
- ASSAY_SUMMARY: Mass spectrometry based assay to identify modulators of SIRT1 activity (deacetylation of p53-based acetylated peptide)
- Type: biochemical
- CONDITION_NOTES: SIRT1 activation; 10 nM SIRT1, 0.5 μM peptide substrate, 120 μM βNAD+, 25 minutes at 25° C.
MEASURED_PROPERTY: EC1.5 μM

structure=O=C(Nc1cccnc1)c1cccc2c(=O)cc(-c3cccc(OC(F)F)c3)[nH]c12 experimental_result="A (EC1.5<1.0 μM)"
structure=O=C(Nc1nccs1)c1cccc2c(=O)cc(-c3cccc(C(F)F)c3)[nH]c12 experimental_result="A (EC1.5<1.0 μM)"
structure=Cn1c(-c2ccccc2C(F)F)nc2c(NC(=O)c3cnccn3)cccc2c1=O experimental_result="A (EC1.5<1.0 μM)"

* * *

- STUDY_TARGET: UniProt:Q96EB6
- ASSAY_SUMMARY: Mass spectrometry based assay to identify modulators of SIRT1 activity (deacetylation of p53-based acetylated peptide)
- Assay type: biochemical
- CONDITION_NOTES: SIRT1 activation; 10 nM SIRT1, 0.5 μM peptide substrate, 120 μM βNAD+, 25 minutes at 25° C.
MEASURED_PROPERTY: EC1.5 μM

Worked examples, 6 compounds total:
compound=Cn1cnc(C(=O)Nc2cccc3c(=O)n(C)c(-c4cccc(C(F)(F)F)c4)nc23)c1 experimental_result="A (EC1.5<1.0 μM)"
compound=Cn1ccc(C(=O)Nc2cccc3c(=O)n(C)c(-c4cccc(C(F)(F)F)c4)nc23)n1 experimental_result="B (EC1.5 1-25 μM)"
compound=Cn1c(-c2cccc(C(F)(F)F)c2)nc2c(NC(=O)c3ccccn3)cccc2c1=O experimental_result="A (EC1.5<1.0 μM)"
compound=Cn1cnc(NC(=O)c2cccc3c(=O)n(C)c(-c4cccc(C(F)(F)F)c4)nc23)n1 experimental_result="B (EC1.5 1-25 μM)"
compound=Cn1c(C2CCC2)nc2c(C(=O)Nc3ccccn3)cccc2c1=O experimental_result="C (EC1.5>25 μM)"
compound=O=C(Nc1nccs1)c1cccc2c(=O)cc(-c3cccc(OC(F)(F)F)c3)[nH]c12 experimental_result="A (EC1.5<1.0 μM)"

Determine from records and report EC1.5 μM for "Cn1c(-c2cccc(C(F)(F)F)c2)nc2c(NC(=O)c3ccncc3)cccc2c1=O"
B (EC1.5 1-25 μM)

Indicate its recorded EC1.5 μM; the compound in question is "Cn1c(-c2ccc(OC(F)(F)F)cc2)nc2c(C(=O)Nc3ccccn3)cccc2c1=O"
C (EC1.5>25 μM)

Report EC1.5 μM, nothing else, for this compound: "Cn1c(-c2cccc(C(F)(F)F)c2)nc2c(C(=O)Nc3ccc(CN4CCOCC4)nc3)cccc2c1=O"
B (EC1.5 1-25 μM)

Provide measured EC1.5 μM value, entry: "Cn1c(-c2ccccc2OC(F)(F)F)nc2c(C(=O)Nc3ccccn3)cccc2c1=O"
B (EC1.5 1-25 μM)

Note EC1.5 μM for the compound shown: "O=C(Nc1cccc2c(=O)cc(-c3cccc(Cl)c3)[nH]c12)c1cnccn1"
A (EC1.5<1.0 μM)
